target: CanAg antigen (human) (UniProt P15941); test: flow cytometry on CanAg positive Colo205 cells, AF488 anti-human IgG secondary, MFI curve
Quick reference: EC50 of the listed items.
// note: answer is a bare numeric in µg/mL

binder	EC50, µg/mL
HC3 + LC1 (antibody, human IgG1, kappa, V domains shown) VH: QVQLVQSGAEVKKPGASVKVSCKASDYTFTYYGINWVRQATGQGLEWMGWIDTTTGEPTYAQKFQGRVTFTLETSISTAYMELSSLRSEDTAVYYCARRGPYNWYFDVWGAGTLVTVSS VL: DIVMTQTPLSLPVTPGEPASISCRSSKSLLHSNGNTYLYWYLQKPGQSPQLLIYRMSNRASGVPDRFSGSGSGTDFTLKISRVEAEDVGVYYCLQHLEYPFTFGPGTKVDIKR	0.266
HC2 + LC3 (antibody, human IgG1, kappa, V domains shown) VH: QVQLVQSGAEVKKPGASVKVSCKASDYTFTYYGMNWVRQAPGQGLEWMGWIDTTTGEPSYAQKFQGRVTFTLDTSASTVYMELSSLRSEDTAVYYCARRGPYNWYFDVWGQGTLVTVSS VL: DIVMTQTPLSLSVTPGQPASISCKSSKSLLHSNGNTYLYWYLQKPGQSPQLLIYRMSNLFSGVPDRFSGSGSGTDFTLKISRVEAEDVGVYYCLQHLEYPFTFGPGTKVDIKR	0.354

Query HC3 + LC3 (antibody, human IgG1, kappa, V domains shown) VH: QVQLVQSGAEVKKPGASVKVSCKASDYTFTYYGINWVRQATGQGLEWMGWIDTTTGEPTYAQKFQGRVTFTLETSISTAYMELSSLRSEDTAVYYCARRGPYNWYFDVWGAGTLVTVSS VL: DIVMTQTPLSLSVTPGQPASISCKSSKSLLHSNGNTYLYWYLQKPGQSPQLLIYRMSNLFSGVPDRFSGSGSGTDFTLKISRVEAEDVGVYYCLQHLEYPFTFGPGTKVDIKR yields EC50 of 0.294
